Origin of measurements: PubChem BioAssay (EPA / NIEHS)

Assay: BSK_BE3C_SRB: Viability Assessment in the BioMAP Diversity Plus: BE3C Assay (AID 2283028)
Conditions: primary human bronchial epithelial cells
Experimental: BSK_BE3C is a cell-based, multiplexed-readout assay that uses bronchial epithelial cell, a human lung primary cell, with measurements taken at 24 hours after chemical dosing in a 96-well plate.BSK_BE3C_SRB is an assay component measured in the BSK_BE3C assay. It measures 0.1% sulforhodamine related to cell death using Sulforhodamine staining technology.Data from the assay component BSK_BE3C_SRB was analyzed into 1 assay endpoint. […]
Active and inactive are the calls of the source. The calls were made as follows: active = hit-call score of the fitted dose curve at least 0.9, where 1 is the maximum; inactive = score below 0.9.
Give one outcome, nothing more. List: True for active, False for inactive

• CO[Si](OC)(OC)c1ccccc1 = False
• C=CC=CC=CCCCCC = False
• c1ccc2c(c1)ccc1cc3c(ccc4ccccc43)cc12 = False
• C=C[Si](OC(C)=O)(OC(C)=O)OC(C)=O = False
• CCOc1nc(F)cc2nc(S(=O)(=O)Nc3c(Cl)cccc3C(=O)OC)nn12 = False

Tell me the recorded outcome of this test for C/C=C\C/C=C/CCCCCCCCOC(C)=O .
False

And then CN1C(=O)N(C)C(O)C1O (configuration not stated) , what is it?
False

And then COc1ccc2nc(N)sc2c1 , what is it?
False

And then O=Nc1ccc(O)cc1 , what is it?
False

And then CCCCCCCCc1ccc(Nc2ccc(CCCCCCCC)cc2)cc1 , what is it?
False

And then CCCCC/C=C\C/C=C\CCCCCCCC(=O)OC , what is it?
False
